The entries below are paired with their reported EC50.
- targetOfAssay: T1, human IL-3Rα (CD123), cell-expressed (human, UniProt P26951 19-378)
- T1 construct: whole, on cells; also called IL-3Ra; Hek-IL-3Rα
- T1 sequence (P26951 19-378): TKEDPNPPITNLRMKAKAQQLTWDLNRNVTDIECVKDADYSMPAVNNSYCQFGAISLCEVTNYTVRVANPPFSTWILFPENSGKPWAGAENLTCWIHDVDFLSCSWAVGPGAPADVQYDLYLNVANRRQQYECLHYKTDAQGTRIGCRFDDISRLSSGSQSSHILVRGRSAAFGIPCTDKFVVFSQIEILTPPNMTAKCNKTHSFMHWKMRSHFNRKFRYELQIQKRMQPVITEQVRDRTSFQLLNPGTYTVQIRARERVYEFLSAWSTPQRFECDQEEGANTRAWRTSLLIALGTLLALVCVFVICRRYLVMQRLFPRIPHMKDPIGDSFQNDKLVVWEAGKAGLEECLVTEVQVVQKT
- measurementNotes: flow cytometry on Molm-13 cells; EC50(M) printed in the legend box beside the curves
assayReadout: EC50 (µM)

binder	measuredNumber
55F03 (VHH) VHH: EVQLVESGGGLVQAGGPLRLSCAASGRTFSSYVMGWFRQAPGKEREFVAAIYWSNGKTQYTDSVKGRFTISGDNAKNTVYLQMNSLNPEDTAVYYCVADKDETGFRTLPIAYDYWGLGTQVTVSS	0.35
57A07 (VHH, also called CD123#1; A0110057A07) VHH: EVQLVESGGGLVQAGGSLRLSCAASGSIFSGNVMGWYRRQAPGKEREWVAAIASGGSIYYRDSVKGRFTISRDNAKNTVYLQMNSLKPEDTAVYYCNSHPPTLPYWGLGTQVTVSS	0.00067
51D09 (VHH) VHH: EVQLVESGGGLVQPGGSLRLSCAASGSIFSGNTMGWYRQAPGKQRELVAAISSGGSTDYADSVKGRFTISRDNSKNTVYLQMNSLRPEDTAVYYCNAAILLYRLYGYEEGDYWGLGTLVTVSS	0.016
55C05 (VHH) VHH: EVQLVESGGGLVPAGDSLRLSCVASGRSLNTYTMGWFRQAPGKECEFVAAINWNGVYRDYADSAKGRFTASRDNAMNTVFLQMNSLKPEDTAVYFCATATQGWDRHTEPSDFGSWGLGTQVTVSS	4.1
